Recorded Peptide-ratio 18-23/2-7 values for a group of binders are listed next.
Target: T1, BSA-conjugated Aβ heptapeptide VFFAEDC (C-terminal Cys coupled to NSMP-activated BSA);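 also: ELISA of antibody at 10 or 2 µg/ml binding plate-coated BSA–peptide conjugates, detected with HRP anti-human Ig and TMB colour, mock-treated BSA without peptide as negative control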
T1 construct: also called Peptide 18-23
T1 peptide: VFFAEDC
Assay: ELISA
Reported Endpoint: Peptide-ratio 18-23/2-7

Binder	Observed Value
MS-Roche #7.9.H3 Fab (Fab, V domains shown, assembled) VH: QVQLVESGGGLVQPGGSLRLSCAASGFTFSSYAMSWVRQAPGKGLEWVSAINYQGNRKYYADSVKGRFTISRDNSKNTLYLQMNSLRAEDTAVYYCARGKGNTHKPYGYVRYFDVWGQGTLVTVSS VL: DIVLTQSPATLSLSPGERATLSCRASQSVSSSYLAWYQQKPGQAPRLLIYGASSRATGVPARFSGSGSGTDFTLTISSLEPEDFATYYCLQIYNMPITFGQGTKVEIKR	0.57
MS-Roche #7.9.H4 Fab (Fab, V domains shown, assembled) VH: QVQLVESGGGLVQPGGSLRLSCAASGFTFSSYAMSWVRQAPGKGLEWVSAINAVGMKKFYADSVKGRFTISRDNSKNTLYLQMNSLRAEDTAVYYCARGKGNTHKPYGYVRYFDVWGQGTLVTVSS VL: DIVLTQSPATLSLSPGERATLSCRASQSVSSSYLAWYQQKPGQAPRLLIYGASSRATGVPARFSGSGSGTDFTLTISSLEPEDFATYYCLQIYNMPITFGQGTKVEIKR	0.49
MS-Roche #7.9.H1 Fab (Fab, V domains shown, assembled) VH: QVQLVESGGGLVQPGGSLRLSCAASGFTFSSYAMSWVRQAPGKGLEWVSAINANGQRKFYADSVKGRFTISRDNSKNTLYLQMNSLRAEDTAVYYCARGKGNTHKPYGYVRYFDVWGQGTLVTVSS VL: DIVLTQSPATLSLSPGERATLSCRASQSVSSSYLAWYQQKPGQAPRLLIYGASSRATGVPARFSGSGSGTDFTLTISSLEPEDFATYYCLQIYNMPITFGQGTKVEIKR	0.36
